Sourced from PubChem BioAssay (NCI)

Could you please report measured growth for the items listed next?
- System: BT-549 breast
- assay.explanation: NCI-60 one-dose screen, 48 h (100 = growth as untreated, 0 = no growth, -100 = all killed)
- run.conditions: 10 µM unless noted
The panel holds about 83,000 compounds, 20% with a hit somewhere; the sample as a whole holds those more often.
Answers are plain numbers, in %.

I would be grateful if you could provide growth for each of the following entries.
1. Fc1ccc(COc2ccc(Nc3ncnc4sc5c(c34)CCCC5)cc2)cc1
2. N#C/C(=C\c1ccc(Cl)cc1Cl)C(=O)Nc1ncc(Cc2ccc(Cl)c(Cl)c2)s1
3. O=C(N/N=C/c1ccc(O)cc1O)c1ccc(Nc2ccnc(C(F)(F)F)c2)cc1
4. COc1cc2ncnc(Nc3ccc(F)c(Cl)c3)c2cc1OCC(=O)N1CCN(c2ccc(F)cc2)CC1
5. Clc1ccc(-c2cn3ccsc3n2)c(Cl)c1Cl

1. 99.1
2. 111
3. 41.5
4. 101
5. 86.3
